SYSTEM NAME: APOL1
COND: ASO, A431, 1 µM
After the bases stand the sugars from the 5' end (letter, count) and the backbone: PS all phosphorothioate, else s phosphorothioate and o phosphodiester by linkage. Methylation of C is not given here. e = 2'-O-(2-methoxyethyl) (MOE); k = constrained ethyl (cEt); d = 2'-deoxy (DNA)
ASSAY ENDPOINT: target mRNA inhibition
Field: value (include unit after the number)

In the examples that follow, each entry is paired with its recorded target mRNA inhibition.
ATTCTGTGTGCTCACT (sugars k4 d9 k3, PS) | 92%
TTTTGTAAGTGCAACC (sugars kkkddddkekeddddd, PS) | 97%
TTTAGAAAGGACACGG (sugars k4 d9 k3, PS) | 90%
CACTTTACATGCACGA (sugars k4 d9 k3, PS) | 85%
CGTCAATATATTCTTT (sugars kddddkekekeddddd, PS) | 90%

Now for a further sequence.
Qu. Request body: readout target mRNA inhibition, system APOL1, query GTAAGTGCTTTGATTC (sugars k4 d9 k3, PS) . Return the value.
Ans. 92%
